# tested target: Torsin-1A (Homo sapiens)
# assay text: torsin A mutant lysate binding on microarrays – cell lysate, small-molecule microarray, COS7 lysate, 635/667 nm fluorescence, primary screen (AID 1150);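 further: score pools 667 nm emission and signal to noise measuring lysate protein binding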
# experimental parameters: COS7 hTOR1A mutant lysate, 635 nm fluorescence, higher = more signal
Decision: composite z-score compared against 0.8; not below it gives YES, below it gives NO.

Please review the following examples before continuing.
molecule	assigned label
C[N+](C)(C)CCCC[C@@H]1NC(=O)[C@@H]2C[C@H](C(=O)NCCCCCCN)[C@H](c3cccc(OCCO)c3)N2C1=O	YES
CC(C)=C1C(=O)C(c2ccccc2)=C2CN3C(=O)N(CCc4ccccc4)C(=O)[C@]3(Cc3ccc(C(F)(F)F)cc3)[C@H]21	NO
COCCOC(=O)N1C(=O)[C@@]2(c3ccccc31)[C@H](C(=O)NC[C@H](O)c1ccccc1)[C@H]1C(=O)O[C@H](c3ccccc3)[C@H](c3ccccc3)N1[C@@H]2c1ccc(O)cc1	NO
CCOC(=O)C[C@H]1[C@H](OC(=O)c2ccccc2-c2ccccc2)[C@@H](NC(=O)c2ccc3ccccc3c2)c2cc(OCCCO)ccc2N1C(=O)c1ccccc1	NO
COc1ccc([Si](C)(C)[C@H]2[C@H](CC(=O)N3Cc4ccccc4C[C@H]3CO)O[C@@]3(C(=O)N(Cc4ccc(N5CCOC5=O)cc4)c4ccccc43)[C@@H]2C)cc1	NO

# bool: composite z-score of NC(=O)NCC#Cc1ccc2c(c1)[C@]1(C(=O)N2)[C@H](c2ccccc2OCCO)N2[C@H](c3ccccc3)[C@H](c3ccccc3)OC(=O)[C@H]2[C@@H]1C(=O)NC[C@H](O)c1ccccc1 >= 0.8 NO

Queued: CC(C)C(O)C1C=CC2C(=O)N(c3ccccc3)C(=O)C2N1Nc1ccccc1 (centres undefined) YES

Queued: Cc1ccc(F)cc1S(=O)(=O)N[C@@H]1CCN(Cc2ccc(Br)cc2)C1 NO

====

# assay text: JC-1 mitochondrial signal, unstimulated HepG2 cells – cell-based, JC-1 fluorescence, 24 h, 100 nL compound, profiling panel (AID 1167); further: test concentration not given here
# experimental parameters: HepG2 mitochondrial potential, higher = more signal
outcome measure: z-score
Just the number, please.

compound	z-score
CC(C)C(CO)N1C(=O)[C@@H]2C3C(=O)OCCC/C=C\[C@H]3OC23C=CCN(Cn2nnc4ccccc42)C(=O)[C@@H]13 (some centres undefined)	-0.45

Which z-score reading was recorded for the compound [N-]=[N+]=Nc1ccccc1C[C@@]1(C(=O)NCCN2CCOCC2)N=C(c2ccc(OCCCO)cc2)O[C@@H]1c1ccccc1N=[N+]=[N-] ? -0.112

Queued: O=C(O)[C@@H]1C[C@@H]2C(=O)N3CCC[C@H]3C(=O)N2[C@@H]1c1ccc(O)cc1 0.0357

Queued: O=C1N(CCS(=O)(=O)c2ccccc2)c2ccccc2[C@H]2OC(c3ccc(OCCCO)cc3)=N[C@@]12Cc1ccccc1 -0.654

Queued: COCCOC(=O)N1C(=O)[C@@]2(c3cc(C#CCC(C(=O)OC)C(=O)OC)ccc31)[C@H](c1ccc(OCCO)cc1)N1[C@H](c3ccccc3)[C@H](c3ccccc3)OC(=O)[C@H]1[C@@H]2C(=O)N1CCc2cc(OC)c(OC)cc2C1 0.363

Queued: Cc1cc(C)c(C(O)C2C=CC3C(=O)N(c4ccccc4)C(=O)C3N2Nc2ccccc2F)c(C)c1 (centres undefined) -1.84

Queued: CCN(CC)c1ccc(N2CC=CC34O[C@@H]5/C=C\CCCOC(=O)C5[C@H]3C(=O)N(C(C)CO)[C@@H]4C2=O)cc1 (some centres undefined) 0.8

Queued: CCOC(=O)C1=C[C@@H](C(C)(C)C)N(S(=O)(=O)c2ccc(C)cc2)[C@H]1c1cccc2ccccc12 3.37

Queued: O=C1O[C@H](c2ccccc2)[C@H](c2ccccc2)N2[C@H]1[C@@H](C(=O)O)[C@]1(C(=O)Nc3ccc(C#CCCO)cc31)[C@H]2c1ccccc1OCCO -0.892

Queued: Cc1ccc(S[C@]2(C(=O)NCC(F)(F)F)CC(=O)N(Cc3cc(C(F)(F)F)cc(C(F)(F)F)c3)[C@@H]2c2ccc(CO)cc2)cc1 -0.693

Queued: O=C(NCCN1CCOCC1)[C@@H]1c2ccccc2C(=O)N(C2Cc3ccccc3C2)[C@H]1c1ccc(CO)cc1 4.03

Queued: O=C1C2C=CC(C(O)c3ccco3)N(Nc3ccccc3F)C2C(=O)N1c1ccccc1 (centres undefined) -1.27

Queued: COC(=O)C1=CC(CCCO)=CC(c2ccc(CN3CCCC3)cc2)N(Cc2cccc(OC(F)(F)F)c2)C=C1C(=O)OC (centres undefined) 3.57

Queued: CN(C)c1ccc(C(O)C2C=CC3C(=O)NC(=O)C3N2Nc2ccccn2)cc1 (centres undefined) -1.21

Queued: N[C@@H](Cc1ccccc1)C(=O)NCc1cn(Cc2ccccc2)nn1 0.178

Queued: C=CC[C@]1(C(=O)N2CCOCC2)COC(c2ccc(OCCCO)cc2)=N1 -0.658

Queued: COC(=O)[C@@]1(Cc2ccc(F)cc2)[C@H]2c3cc(C(=O)N(C)C)n(Cc4ccc(OC(F)(F)F)cc4)c3C[C@H]2CN1C(=O)c1ccccc1 -0.0759

Queued: C=CCC(OC(C)=O)[C@@H]1[C@@H](N(Cc2cccc3ccccc23)C(=O)Cc2ccc(F)cc2)c2cc(OCCCO)ccc2N1C(=O)c1ccc2ccccc2c1 (some centres undefined) 2.9

====

# assay text: hepatitis C replication reporter changes, two-sided – Huh7 cells, luciferase reporter, HCV replication inhibitor project, primary screen (AID 1109);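 further: huh7 hepatoma cells harbouring a luciferase neomycin HCV replicon reporter; luciferase luminescence as measure of HCV replicon replication; test concentration not given here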
# experimental parameters: Huh7 HCV replicon luciferase reporter, 48 h; higher = more signal
outcome measure: z-score

Here is how some molecules turned out for z-score.
molecule	z-score
C=CCC(OC(C)=O)[C@@H]1[C@@H](N(Cc2ccc(-c3cccc(C(F)(F)F)c3)o2)C(=O)Cc2ccc(OC)cc2)c2cc(OCCCO)ccc2N1C(=O)c1ccc(-c2ccccc2)cc1 (some centres not stated)	0.278
C=CC[C@]1(C(=O)N2CCOCC2)COC(c2ccc(OCCCO)cc2)=N1	-0.164
NC(=O)NCC#Cc1ccc2c(c1)[C@]1(C(=O)N2)[C@H](c2ccccc2OCCO)N2[C@H](c3ccccc3)[C@H](c3ccccc3)OC(=O)[C@H]2[C@@H]1C(=O)NC[C@H](O)c1ccccc1	-0.651
CC[C@@H]1C=C(C(=O)O)[C@H](c2ccc(C#N)cc2)N1S(=O)(=O)c1ccc(C)cc1	-0.651
COc1ccc(CCNC(=O)[C@@H]2c3ccccc3C(=O)N(C3CCCCC3)[C@H]2c2ccc(CO)cc2)cc1	-1.82
CCC#CCN(Cc1ccccc1Br)[C@H](/C=C/C1CC1)[C@@H](O)Cc1ccccc1	-2.19

Which z-score reading was recorded for the molecule Cc1ccccc1C(O)C1C=CC2C(=O)NC(=O)C2N1Nc1ccccn1 (configuration not stated) ? 0.331

====

# assay text: ATP-based viability of Huh7 replicon cells – cell-based, CellTiter-Glo luminescence, basal, 48 h, cytotoxicity control for HCV replication inhibitor project, primary screen (AID 1143);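 further: Huh7 hepatoma cells carrying a hepatitis C replication reporter with no stimulus; test concentration not given here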
# experimental parameters: higher = more signal, called active from +8 up or from −8 down
Measured z-score values are reported for all entries that follow.
Just the number, please.

Which z-score reading was recorded for the molecule NC(=O)NCC#Cc1ccc2c(c1)[C@]1(C(=O)N2)[C@H](c2ccccc2OCCO)N2[C@H](c3ccccc3)[C@H](c3ccccc3)OC(=O)[C@H]2[C@@H]1C(=O)O ? -1.22

Queued: CCOC(=O)C1=C[C@@H](C(C)(C)C)N(S(=O)(=O)c2ccc(C)cc2)[C@H]1c1cccc2ccccc12 -4.9

Queued: C=C[C@@H](OC)[C@H](OC(=O)Nc1ccc(OC)cc1)c1ccc(O)c(F)c1 -2.63

====

# assay text: probe aCHRDL2 binding to arrayed compounds – biochemical, biotinylated probe, 635/667 nm fluorescence, primary screen (AID 1100)
# experimental parameters: small-molecule microarray, higher = more signal
outcome measure: composite z-score
Just the number, please.

Here is how some molecules turned out for composite z-score.
molecule	composite z-score
CCCCCCCCCC(O)C1C=CC2C(=O)N(c3ccccc3)C(=O)C2N1Nc1cc(OC)c(OC)c(OC)c1 (stereo not given)	0.662
O=C1O[C@@H](c2ccccc2)[C@@H](c2ccccc2)N2[C@@H](c3ccc(O)cc3)[C@]3(C(=O)Nc4ccc(C#CCCO)cc43)[C@@H](C(=O)N3CCN(c4ncccn4)CC3)[C@H]12	-1.14
CC(C)[Si]1(C(C)C)OCc2cc(-c3ccc(-c4ccc(Cl)c(Cl)c4)o3)nc(-c3ccccc3)c21	0.724
Cc1ccc(S[C@]2(C(=O)NCc3ccccc3)CC(=O)N(C3CCCCC3)[C@@H]2c2ccc(CO)cc2I)cc1	0.379

Which composite z-score reading was recorded for the molecule CCOC(=O)C[C@H]1[C@H](OC(=O)c2cc3ccccc3oc2=O)[C@@H](NC(=O)CC(C)C)c2cc(OCCCO)ccc2N1C(=O)c1ccc2ccccc2n1 ? -0.53

Queued: [N-]=[N+]=NCc1ccccc1[C@@H]1OC(c2ccc(OCCCO)cc2)=N[C@]1(CCS(=O)(=O)c1ccccc1)C(=O)O 0.95

Queued: CCOC(=O)C[C@H]1[C@H](OC(=O)c2cc3ccccc3oc2=O)[C@@H](NC(=O)c2ccccc2)c2cc(OCCCO)ccc2N1C(=O)c1ccccc1 -0.432

Queued: COC(=O)[C@@]1(Cc2ccccc2)[C@H]2c3cc(C(=O)N(C)C)n(Cc4ccc(C)o4)c3C[C@H]2CN1C(=O)c1ccccc1 1.57

Queued: CC(C)c1ccc(NN2C(C(O)c3ccc(F)cc3)C=CC3C(=O)N(c4ccccc4)C(=O)C32)cc1 (stereo not given) 0.775
